Biological target: ATR/ATRIP complex (Homo sapiens (Human))
Experiment: ATR/ATRIP enzymatic assay (Caliper-based)
Settings: ATR/ATRIP enzyme; FAM-labeled RAD17 peptide, ATP
log10(IC50) values by entry
Please keep in mind that the values are log10 of IC50 expressed in nM.

Worked examples, 4 compounds total:
- COMPOUND: "C[C@@H]1COCCN1c1cc(N=S2(=O)CCC2)nc(-c2ccnc3[nH]ccc23)c1 [Example 25]"
  REPORTED_ENDPOINT: "log10(IC50)"
  OBSERVED_RESULT: 0.95
- COMPOUND: "C[C@@H]1COCCN1c1cc(N=S(C)(C)=O)nc(-c2cncc3[nH]ccc23)c1 [Example 13]"
  REPORTED_ENDPOINT: "log10(IC50)"
  OBSERVED_RESULT: 0.95
- COMPOUND: "C[C@@H]1COCCN1c1cc(N=S(C)(=O)C2COC2)nc(-c2cncc3[nH]ccc23)c1 (stereo partly shown) [Example 24]"
  REPORTED_ENDPOINT: "log10(IC50)"
  OBSERVED_RESULT: 1.38
- COMPOUND: "C[C@@H]1COCCN1c1cc(N=S(C)(=O)C2CC2)nc(-c2cncc3[nH]ccc23)c1 (stereo partly shown) [Example 22]"
  REPORTED_ENDPOINT: "log10(IC50)"
  OBSERVED_RESULT: 0.78

Given C[C@@H]1COCCN1c1cc(N=S(C)(C)=O)nc(-c2cc(Cl)nc3[nH]ccc23)c1 [Example 27] , state its recorded log10(IC50).
1.48

// repeat for Cc1nc2cccnc2n1-c1cc(N2CCOC[C@H]2C)cc(N=S(C)(C)=O)n1 [Example 4] and report
2.99

// repeat for C[C@@H]1COCCN1c1cc(N=S(C)(C)=O)nc(-c2cccc3[nH]cnc23)c1 [Example 23] and report
0.90

// repeat for C[C@@H]1COCCN1c1cc(N=S2(=O)CCCC2)nc(-c2ccnc3[nH]ccc23)c1 [Example 26] and report
0.90

// repeat for CNc1nc2ccccc2n1-c1cc(N2CCOC[C@H]2C)cc(N=S(C)(C)=O)n1 [Example 10] and report
0.00

// repeat for C[C@@H]1COCCN1c1cc(N=S(C)(C)=O)nc(-c2ccnn2C)c1 [Example 33] and report
3.27

// repeat for C[C@@H]1COCCN1c1cc(N=S(C)(C)=O)nc(-c2cccc3[nH]ccc23)c1 [Example 20] and report
1.08

// repeat for C[C@@H]1COCCN1c1cc(N=S(C)(C)=O)nc(-c2ccnc3[nH]cnc23)c1 [Example 2] and report
2.07

// repeat for C[C@@H]1COCCN1c1cc(N=S(C)(C)=O)nc(-c2nccn2C)c1 [Example 31] and report
3.54

====

Target: ATR/ATRIP complex (Homo sapiens (Human), UniProt Q13535)
Sequence (Q13535 whole entry): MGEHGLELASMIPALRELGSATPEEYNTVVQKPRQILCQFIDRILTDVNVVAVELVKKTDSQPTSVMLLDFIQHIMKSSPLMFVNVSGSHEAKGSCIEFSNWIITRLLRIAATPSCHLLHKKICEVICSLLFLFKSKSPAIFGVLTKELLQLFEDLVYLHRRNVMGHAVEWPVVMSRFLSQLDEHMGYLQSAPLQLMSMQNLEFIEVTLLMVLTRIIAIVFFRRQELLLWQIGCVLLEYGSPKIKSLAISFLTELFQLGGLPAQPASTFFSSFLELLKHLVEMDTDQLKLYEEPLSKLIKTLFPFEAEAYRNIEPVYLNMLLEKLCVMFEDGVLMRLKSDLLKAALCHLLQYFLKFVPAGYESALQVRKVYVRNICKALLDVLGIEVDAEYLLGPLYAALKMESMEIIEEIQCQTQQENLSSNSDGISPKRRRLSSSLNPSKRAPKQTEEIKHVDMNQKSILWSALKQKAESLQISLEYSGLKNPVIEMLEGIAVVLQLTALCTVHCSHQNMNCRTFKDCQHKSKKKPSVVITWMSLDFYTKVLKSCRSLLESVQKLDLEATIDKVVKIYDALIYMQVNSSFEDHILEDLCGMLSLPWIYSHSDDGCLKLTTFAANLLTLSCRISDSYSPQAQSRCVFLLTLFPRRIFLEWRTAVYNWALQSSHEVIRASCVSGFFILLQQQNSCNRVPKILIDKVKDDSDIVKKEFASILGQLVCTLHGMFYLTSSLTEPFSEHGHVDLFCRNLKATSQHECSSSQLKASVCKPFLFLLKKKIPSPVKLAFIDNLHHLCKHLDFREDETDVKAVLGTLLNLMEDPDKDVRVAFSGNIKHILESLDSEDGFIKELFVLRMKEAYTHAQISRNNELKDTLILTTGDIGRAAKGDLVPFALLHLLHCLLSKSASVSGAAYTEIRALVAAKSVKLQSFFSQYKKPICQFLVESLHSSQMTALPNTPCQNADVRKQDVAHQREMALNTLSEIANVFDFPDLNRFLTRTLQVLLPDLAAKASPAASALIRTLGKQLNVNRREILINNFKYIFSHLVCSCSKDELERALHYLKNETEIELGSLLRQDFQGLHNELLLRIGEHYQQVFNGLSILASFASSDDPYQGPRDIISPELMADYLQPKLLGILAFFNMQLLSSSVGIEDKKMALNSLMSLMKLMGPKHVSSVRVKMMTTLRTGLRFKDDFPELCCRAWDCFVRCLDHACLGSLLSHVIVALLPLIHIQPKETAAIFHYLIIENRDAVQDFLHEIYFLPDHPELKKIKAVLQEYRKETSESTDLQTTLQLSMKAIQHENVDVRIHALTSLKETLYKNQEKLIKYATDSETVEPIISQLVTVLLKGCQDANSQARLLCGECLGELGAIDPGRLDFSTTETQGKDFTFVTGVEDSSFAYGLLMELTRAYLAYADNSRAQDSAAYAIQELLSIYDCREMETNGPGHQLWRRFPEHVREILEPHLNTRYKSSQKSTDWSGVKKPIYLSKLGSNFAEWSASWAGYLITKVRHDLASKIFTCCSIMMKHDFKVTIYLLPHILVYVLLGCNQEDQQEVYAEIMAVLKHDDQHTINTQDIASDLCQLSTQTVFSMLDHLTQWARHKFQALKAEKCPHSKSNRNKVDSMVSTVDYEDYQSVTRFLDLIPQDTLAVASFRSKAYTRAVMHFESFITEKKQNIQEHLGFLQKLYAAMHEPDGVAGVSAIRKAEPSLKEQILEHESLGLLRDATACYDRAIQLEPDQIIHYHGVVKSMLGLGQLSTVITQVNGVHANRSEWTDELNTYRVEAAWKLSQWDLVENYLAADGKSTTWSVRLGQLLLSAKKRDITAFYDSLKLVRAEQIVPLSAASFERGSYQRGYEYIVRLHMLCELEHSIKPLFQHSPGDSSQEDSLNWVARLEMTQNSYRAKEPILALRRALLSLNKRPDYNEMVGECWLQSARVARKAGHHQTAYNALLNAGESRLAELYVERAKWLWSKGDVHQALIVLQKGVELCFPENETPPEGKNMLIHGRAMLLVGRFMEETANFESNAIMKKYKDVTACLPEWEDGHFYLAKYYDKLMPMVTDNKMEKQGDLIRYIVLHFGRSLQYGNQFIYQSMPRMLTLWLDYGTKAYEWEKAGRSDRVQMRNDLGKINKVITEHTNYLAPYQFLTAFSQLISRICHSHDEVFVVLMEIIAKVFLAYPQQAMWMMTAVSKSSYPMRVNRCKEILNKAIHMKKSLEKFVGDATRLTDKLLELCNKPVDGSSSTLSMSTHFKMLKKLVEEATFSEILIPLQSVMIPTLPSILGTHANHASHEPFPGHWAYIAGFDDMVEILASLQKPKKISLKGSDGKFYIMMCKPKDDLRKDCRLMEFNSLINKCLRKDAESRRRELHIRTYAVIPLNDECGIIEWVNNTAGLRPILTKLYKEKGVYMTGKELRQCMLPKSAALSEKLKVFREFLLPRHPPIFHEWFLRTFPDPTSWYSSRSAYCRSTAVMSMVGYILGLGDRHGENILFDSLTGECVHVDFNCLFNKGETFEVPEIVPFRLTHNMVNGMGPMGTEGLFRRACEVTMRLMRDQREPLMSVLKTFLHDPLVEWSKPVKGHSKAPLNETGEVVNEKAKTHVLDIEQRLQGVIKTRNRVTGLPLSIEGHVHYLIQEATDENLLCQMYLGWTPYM
Sequence (Q8WXE1 whole entry partner): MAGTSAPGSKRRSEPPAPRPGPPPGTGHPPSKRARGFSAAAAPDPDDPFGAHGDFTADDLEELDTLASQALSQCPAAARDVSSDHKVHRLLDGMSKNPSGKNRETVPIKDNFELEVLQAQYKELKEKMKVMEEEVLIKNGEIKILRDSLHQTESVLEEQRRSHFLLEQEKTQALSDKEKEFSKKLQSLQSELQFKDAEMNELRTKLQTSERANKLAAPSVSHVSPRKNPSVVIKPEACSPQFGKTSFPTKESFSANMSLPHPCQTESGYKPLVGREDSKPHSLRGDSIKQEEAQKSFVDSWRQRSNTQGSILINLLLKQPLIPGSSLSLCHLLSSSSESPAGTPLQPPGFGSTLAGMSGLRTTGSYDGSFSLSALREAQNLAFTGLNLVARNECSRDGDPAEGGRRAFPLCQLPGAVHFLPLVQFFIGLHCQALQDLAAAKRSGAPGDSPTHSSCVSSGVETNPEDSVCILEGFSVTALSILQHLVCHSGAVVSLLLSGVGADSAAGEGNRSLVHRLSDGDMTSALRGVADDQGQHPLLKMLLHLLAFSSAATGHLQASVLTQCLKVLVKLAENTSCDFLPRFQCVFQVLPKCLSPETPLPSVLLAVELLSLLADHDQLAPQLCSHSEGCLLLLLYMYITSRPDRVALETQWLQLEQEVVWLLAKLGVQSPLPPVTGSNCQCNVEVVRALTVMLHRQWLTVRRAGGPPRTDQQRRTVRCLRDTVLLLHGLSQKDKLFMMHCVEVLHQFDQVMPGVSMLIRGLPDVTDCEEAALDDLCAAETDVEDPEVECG
Assay: ATR/ATRIP enzymatic assay (Caliper-based)
Conditions: ATR/ATRIP enzyme; FAM-labeled RAD17 peptide, ATP
Procedure: The ability of the compounds of Formula I to inhibit the catalytic activity of the ATR/ATRIP complex was measured in a Caliper-based assay, and in HT-29 cells in an Alphascreen assay, following the ATR-mediated phosphorylation of CHK1, described below. Human full-length FLAG-TEV-ATR and His6-ATRIP were co-expressed in HEK293 cells. […] The ability of new chemical matter to inhibit the ATR catalytic activity in this ATR/ATRIP complex was assessed using a Caliper-based assay. […]
So basically: is IC50 under 30 nM? Then 1 (yes). Not under? Then 0 (no).

// known answers, use as guide
- COMPOUND: "Cc1nccn1-c1cc(N2CCOC[C@H]2C)cc(N=S(C)(C)=O)n1 [Example 39]"
  LABEL: "0 (no)"
- COMPOUND: "C[C@@H]1COCCN1c1cc(N=S(C)(C)=O)nc(-n2cnc3cccnc32)c1 [Example 5]"
  LABEL: "0 (no)"
- COMPOUND: "Cc1cc2c(-c3cc(N4CCOC[C@H]4C)cc(N=S(C)(C)=O)n3)ccnc2[nH]1 [Example 12]"
  LABEL: "1 (yes)"
- COMPOUND: "C[C@@H]1COCCN1c1cc(N=S(C)(=O)C2COC2)nc(-c2ccnc3[nH]ccc23)c1 (some centres unmarked) [Example 17]"
  LABEL: "1 (yes)"

Given C[C@@H]1COCCN1c1cc(N=S(C)(=O)C2CC2)nc(-c2cncc3[nH]ccc23)c1 (some centres unmarked) [Example 21] , is recorded IC50 strictly lower than 30 nM?
1 (yes)

// repeat for C[C@@H]1COCCN1c1cc(N=S(C)(C)=O)nc(-c2cnn(C)c2)c1 [Example 34] and report
0 (no)

// repeat for C[C@@H]1COCCN1c1cc(N=S(C)(C)=O)nc(-c2cc(F)cc3[nH]ccc23)c1 [Example 32] and report
1 (yes)

// repeat for Cc1nc2ccccc2n1-c1cc(N2CCOC[C@H]2C)cc(N=S(C)(C)=O)n1 [Example 28] and report
1 (yes)

// repeat for C[C@@H]1COCCN1c1cc(N=S(C)(C)=O)nc(-n2cnc3ccccc32)c1 [Example 11] and report
1 (yes)

// repeat for C[C@@H]1COCCN1c1cc(N=S(C)(C)=O)nc(-n2c(CF)nc3ccccc32)c1 [Example 8] and report
1 (yes)

// repeat for CCOc1cc(-c2cc(N3CCOC[C@@H]3C)cc(N=S(C)(C)=O)n2)c2cc[nH]c2n1 [Example 19] and report
1 (yes)

// repeat for C[C@@H]1COCCN1c1cc(N=S(C)(C)=O)nc(-c2ccnc(N)c2)c1 [Example 15] and report
0 (no)

// repeat for CCOc1cc(-c2cc(N3CCOC[C@H]3C)cc(N=S(C)(C)=O)n2)c2cc[nH]c2n1 [Example 18] and report
1 (yes)

// repeat for C[C@@H]1COCCN1c1cc(N=S(C)(C)=O)nc(-n2c(C(F)F)nc3ccccc32)c1 [Example 6] and report
1 (yes)

// repeat for C[C@@H]1COCCN1c1cc(N=S(C)(C)=O)nc(-n2c(N)nc3ccccc32)c1 [Example 9] and report
1 (yes)

// repeat for C[C@@H]1COCCN1c1cc(N=S(C)(C)=O)nc(-n2c(CO)nc3ccccc32)c1 [Example 7] and report
1 (yes)

// repeat for COc1cc(-c2cc(N3CCOC[C@H]3C)cc(N=S(C)(C)=O)n2)c2cc[nH]c2n1 [Example 14] and report
0 (no)

====

System: ATR-driven phosphorylation of Chk1 kinase at Serine 345 in HT-29 cells
Assay: pCHK1 cellular assay (CHK1 p-Ser345 AlphaScreen SureFire)
Assay type: cell-based
Details: HT-29 colorectal adenocarcinoma cells; 4-nitroquinoline N-oxide 12 μM; read-out: Cell IC50 (pCHK1)
REPORTED_ENDPOINT: IC50 (nM)
Numeric answer only, unit nM assumed.

- COMPOUND: "CCOc1cc(-c2cc(N3CCOC[C@@H]3C)cc(N=S(C)(C)=O)n2)c2cc[nH]c2n1"
  IC50 [nM]: 195

Given C[C@@H]1COCCN1c1cc(N=S(C)(=O)C2CC2)nc(-c2cncc3[nH]ccc23)c1 (some centres unmarked) , state its recorded IC50.
282
